- Target System: T1, OC43 S1B+C (S1B and S1C domains of the hCoV-OC43 spike glycoprotein) (human coronavirus OC43, UniProt P36334 321-675)
- T1 construct: also called recombinant OC43 S1B+C; recombinant OC43 protein; source: Expi293F, transfected, purified from supernatant (Ni-NTA IMAC, SEC); not shown: His6, C-terminal, cleaved
- T1 sequence (looked up): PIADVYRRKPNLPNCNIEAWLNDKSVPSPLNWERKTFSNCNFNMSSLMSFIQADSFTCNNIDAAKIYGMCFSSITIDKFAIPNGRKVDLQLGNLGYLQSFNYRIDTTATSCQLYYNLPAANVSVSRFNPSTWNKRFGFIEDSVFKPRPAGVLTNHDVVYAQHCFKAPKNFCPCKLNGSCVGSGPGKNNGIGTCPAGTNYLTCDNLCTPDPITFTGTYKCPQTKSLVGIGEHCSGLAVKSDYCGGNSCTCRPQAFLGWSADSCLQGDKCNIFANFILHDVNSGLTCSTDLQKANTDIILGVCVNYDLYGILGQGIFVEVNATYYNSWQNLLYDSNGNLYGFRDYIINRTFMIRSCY
- Procedure Text: BLI
- Condition Info: both partners purified
kon under 70000 M⁻¹ s⁻¹ gets 1, anything at or over 70000 M⁻¹ s⁻¹ gets -1.

Prompt: Bench note: check whether WNb 288 (VHH) VHH: QVQLQESGGGLVQAGGSLRLSCAASGRTFSDYFMGWFRQAPGKEREFVAAISWSGGSTYYADSVKGRSTISRDNAKNTVYLQMNSLKPEDTAVYYCAADHDRGWARLRLAEYDYWGQGTQVTVSS shows kon below 70000 M⁻¹ s⁻¹
Completion: 1

Prompt: Identify whether the binder WNb 287 (VHH) VHH: QLQESGGGLVQPGGSLRLSCAASGRTFSFSDYAMGWFRQAPGKEREFVASISWSGGTTYYADSVKGRFTISRDNAKNTVYLQMNSLKPEDTAVYYCAAEIDRGLLLHAVYEYDYWGQGTQVTVSS records kon below 70000 M⁻¹ s⁻¹.
Completion: -1

Prompt: Is 70000 M⁻¹ s⁻¹ strictly greater than the binder's reported kon? binder: WNb 289 (VHH) VHH: QVQLQESGGGLVQAGGSLRLSCAASGRTFSDYAMGWFRQAPGKEREFVATISWSGGTTYYADSVKGRFTISRDNAKNTVYLQMNSLKPEDTAVYYCAAVMDLGMLAADGYEYDYWGQGTQVTVSS
Completion: -1

Prompt: Could you please tell me whether kon recorded for WNb 299 (VHH) VHH: QVQLQESGGGWVQPGGSLRLSCAASGFTFSNYAMGWFRQAPGKEREFVATISWSGGTTVYADSVKGRFTISRDNAKNTVYLQMNSLKPEDTAVYYCAAASDYGMVQMSDYEYDYWGQGTQVTVSS is less than 70000 M⁻¹ s⁻¹?
Completion: -1

Prompt: I'd appreciate it if you could check whether WNb 297 (VHH) VHH: QVQLQESGGGSVQAGGSLRLSCAASGRTFSDYAMGWFRQAPGKEREFVASISWSGGTTYYADSVKGRFTISRDNAKNTVYLQMNSLKPEDTAVYYCAADTDYGMGLITVPDFGSWGQGTQVTVSS has kon smaller than 70000 M⁻¹ s⁻¹.
Completion: -1

Prompt: Does the reported kon of the following binder sit strictly below 70000 M⁻¹ s⁻¹? WNb 296 (VHH) VHH: QVQLQESGGGLVQAGGSLRLSCAASGRTFSDYFMGWFRQAPGKEREFVASISWSGGTTYYADSVKGRFTISRDNANNTVYLQMNSLKPVDTAVYYCAAVADYGLGLTTSYEYDYWGQGTQVTVSS
Completion: 1

Prompt: A record lists WNb 279 (VHH) VHH: QVQLQESGGGLVQPGGSLRLSCAASGRTFSDYFMGWFRQAPGKEREFVAAITWSGGSTYYTDSVKGRFTISRDNAKNTVYLQMNSLKPEDTAVYYCAGGLDMGWSRVALGEYDYWGQGTQVTVSS . Is its kon below 70000 M⁻¹ s⁻¹?
Completion: 1

Prompt: Please indicate whether the reported kon of WNb 291 (VHH) VHH: QVQLQESGGGLVQAGGSLRLSCAASGRTFSNYFMGWFRQAPGKEREFVAAISWSGGTTYYADSVKGRFTISRDNAKNTVYLQMNSLKPEDTAVYYCAANTDYGMGFVRAYEYDYWGQGTQVTVSS is strictly below 70000 M⁻¹ s⁻¹.
Completion: 1

Prompt: Regarding WNb 294 (VHH) VHH: QVQLQESGGGLVQAGGSLRLSCAASGRTFSSYAMGWFRQAPGKEREFVAAISWSGGTTYYGDSVKGRFTISRDNAKNTVYLQMNSLKPEDTAVYYCAAQGDGGSWFPEGLADFGSWGQGTQVTVSS , kindly confirm whether its kon is beneath 70000 M⁻¹ s⁻¹.
Completion: 1

Hey, just so you know, these numbers are from paper PMC11237593.
